target: EGFR (Homo sapiens, UniProt P00533)
Construct: Kinases are expressed as either kinase domains or full length constructs; made in house
Sequence (P00533 25-1210, species assumed): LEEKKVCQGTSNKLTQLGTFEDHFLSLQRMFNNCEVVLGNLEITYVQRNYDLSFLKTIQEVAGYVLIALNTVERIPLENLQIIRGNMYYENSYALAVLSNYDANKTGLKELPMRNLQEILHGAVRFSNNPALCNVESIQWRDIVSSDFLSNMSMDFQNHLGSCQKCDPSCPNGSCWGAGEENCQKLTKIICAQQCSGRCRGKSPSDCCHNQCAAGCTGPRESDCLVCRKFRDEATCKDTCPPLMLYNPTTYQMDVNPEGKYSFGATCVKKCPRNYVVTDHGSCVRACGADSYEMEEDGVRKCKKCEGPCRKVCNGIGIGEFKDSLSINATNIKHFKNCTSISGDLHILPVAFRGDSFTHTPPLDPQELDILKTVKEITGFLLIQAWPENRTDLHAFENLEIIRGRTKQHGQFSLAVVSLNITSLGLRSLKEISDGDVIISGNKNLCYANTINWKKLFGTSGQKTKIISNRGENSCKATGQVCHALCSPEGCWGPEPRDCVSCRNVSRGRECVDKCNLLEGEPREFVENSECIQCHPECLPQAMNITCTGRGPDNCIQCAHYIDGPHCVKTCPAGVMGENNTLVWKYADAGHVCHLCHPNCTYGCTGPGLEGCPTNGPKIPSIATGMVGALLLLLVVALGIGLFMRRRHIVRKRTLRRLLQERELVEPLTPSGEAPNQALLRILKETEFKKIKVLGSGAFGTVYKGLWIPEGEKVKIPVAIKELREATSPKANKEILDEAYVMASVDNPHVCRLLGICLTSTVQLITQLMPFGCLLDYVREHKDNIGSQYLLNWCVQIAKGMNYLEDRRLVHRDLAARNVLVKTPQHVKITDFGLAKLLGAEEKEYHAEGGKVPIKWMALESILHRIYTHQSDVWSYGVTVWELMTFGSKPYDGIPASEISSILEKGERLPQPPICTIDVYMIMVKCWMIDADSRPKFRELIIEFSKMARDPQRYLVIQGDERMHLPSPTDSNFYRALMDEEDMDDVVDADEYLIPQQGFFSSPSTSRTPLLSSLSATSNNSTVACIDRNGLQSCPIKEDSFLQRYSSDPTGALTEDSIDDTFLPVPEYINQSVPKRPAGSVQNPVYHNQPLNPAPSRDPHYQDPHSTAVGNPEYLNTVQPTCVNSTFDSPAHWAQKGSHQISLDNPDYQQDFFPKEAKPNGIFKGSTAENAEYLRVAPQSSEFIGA
assay.explanation: Kinase inhibition assay (33P transfer), EGFR
Assay type: biochemical
run.conditions: Table 2, kinase inhibition class; read-out: EGFR-1
Known IC50 of a selection of compounds

Answered cases to consult:
{"test.smiles": "COc1cc(Nc2ncnc(-c3ccncc3)n2)cc(OC)c1OC", "recorded.value": "> 13.3 µM"}
{"test.smiles": "O=c1[nH]c2ccccc2n1-c1ncnc(Nc2ccccn2)n1", "recorded.value": "> 14.7 µM"}
{"test.smiles": "CN(c1cccc(Cl)c1)c1ncnc(Nc2ccc(F)c(Cl)c2)n1", "recorded.value": "< 1.1 µM"}
{"test.smiles": "COc1cc(Nc2ncnc(-c3ccc(NCCCO)nc3)n2)cc(OC)c1OC", "recorded.value": "> 10.9 µM"}
{"test.smiles": "COc1ccc(Nc2ncnc(N(C)c3cccc(Cl)c3)n2)cc1", "recorded.value": "< 1.17 µM"}

Q: Give IC50 for NC(=O)c1cccc(Nc2ncnc(Nc3cc(-c4ccco4)n[nH]3)n2)c1
Result: < 1.1 µM

Q: Give IC50 for Cc1cccc(Nc2ncnc(-n3cccc3)n2)c1C
Result: > 17 µM

Q: Give IC50 for O=c1[nH]c2ccccc2n1-c1ncnc(Nc2cc(C(F)(F)F)cc(C(F)(F)F)c2)n1
Result: > 10.2 µM

Q: Give IC50 for COc1cc(Nc2ncnc(N3CCc4ccc([N+](=O)[O-])cc43)n2)cc(OC)c1OC
Result: > 10.6 µM

Q: Give IC50 for C=CCNc1ncccc1-c1ncnc(Nc2ccc(C(N)=O)cc2)n1
Result: > 13 µM

====

What follows is a record of pIC50 for Ret-1 (Homo sapiens).
pIC50: −log10 of the molar value.

Answered cases to consult:
{"molecule": "COc1cc(Nc2ncnc(N3CCCc4ccc(C(F)(F)F)cc43)n2)cc(OC)c1OC", "pIC50": "5.01 to 5.12"}
{"molecule": "COc1cc(Nc2ncnc(-n3c(NCc4ccc(Cl)cc4)nc4ccccc43)n2)cc(OC)c1OC", "pIC50": "> 6.11"}
{"molecule": "CCC(Nc1nc2ccccc2n1-c1ncnc(Nc2cc(OC)c(OC)c(OC)c2)n1)c1ccccc1 (stereo not drawn)", "pIC50": "> 6.11"}

Q: Write pIC50 of COCCOc1ccc(Nc2ncnc(-n3c(N)nc4ccccc43)n2)cc1OCCOC ; system used: Ret-1 (Homo sapiens)
Sequence (P07949 29-1114): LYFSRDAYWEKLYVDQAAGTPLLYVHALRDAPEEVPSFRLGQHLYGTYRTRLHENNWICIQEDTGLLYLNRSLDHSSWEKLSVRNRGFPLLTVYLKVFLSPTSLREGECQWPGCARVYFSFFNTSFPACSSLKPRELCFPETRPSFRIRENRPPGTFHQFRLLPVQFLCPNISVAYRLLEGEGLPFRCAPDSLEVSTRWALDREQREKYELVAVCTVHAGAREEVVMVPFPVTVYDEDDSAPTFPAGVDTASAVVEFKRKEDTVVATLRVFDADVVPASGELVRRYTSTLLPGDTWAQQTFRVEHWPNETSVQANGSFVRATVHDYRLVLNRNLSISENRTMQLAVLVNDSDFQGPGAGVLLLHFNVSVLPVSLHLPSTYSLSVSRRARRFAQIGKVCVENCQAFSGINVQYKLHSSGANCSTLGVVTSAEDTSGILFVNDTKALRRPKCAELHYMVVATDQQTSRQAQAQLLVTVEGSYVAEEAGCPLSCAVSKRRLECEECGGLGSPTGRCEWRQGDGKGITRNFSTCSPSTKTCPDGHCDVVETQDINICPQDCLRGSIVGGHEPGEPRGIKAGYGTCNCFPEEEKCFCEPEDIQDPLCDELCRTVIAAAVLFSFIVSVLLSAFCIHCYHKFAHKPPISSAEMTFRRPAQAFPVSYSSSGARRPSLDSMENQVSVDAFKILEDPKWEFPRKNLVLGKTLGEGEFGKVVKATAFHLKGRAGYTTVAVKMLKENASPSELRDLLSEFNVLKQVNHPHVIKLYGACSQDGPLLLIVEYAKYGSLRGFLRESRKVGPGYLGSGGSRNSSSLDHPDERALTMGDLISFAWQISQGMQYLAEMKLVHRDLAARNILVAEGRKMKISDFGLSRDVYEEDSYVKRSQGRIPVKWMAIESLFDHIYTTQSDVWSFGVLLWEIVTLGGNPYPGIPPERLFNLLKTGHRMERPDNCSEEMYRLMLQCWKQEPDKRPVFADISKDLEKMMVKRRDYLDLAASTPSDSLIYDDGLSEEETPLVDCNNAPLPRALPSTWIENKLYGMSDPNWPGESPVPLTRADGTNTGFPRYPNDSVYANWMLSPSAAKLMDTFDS
Result: < 5.00

Q: Write pIC50 of COCCOc1cc(Nc2ncnc(Nc3ccc(C)c(O)c3)n2)ccc1OC ; system used: Ret-1 (Homo sapiens)
Result: > 6.00

Q: Write pIC50 of COc1cc(Nc2ncnc(-n3c(NCc4ccccn4)nc4ccccc43)n2)cc(OC)c1OCCn1ccnn1 ; system used: Ret-1 (Homo sapiens)
Result: > 6.15

Q: Write pIC50 of COc1cc(Nc2ncnc(Nc3ccc(C)c(NS(C)(=O)=O)c3)n2)cc(OC)c1OC ; system used: Ret-1 (Homo sapiens)
Result: > 6.06

Q: Write pIC50 of COc1ccc(Nc2ccc(Nc3ncnc(Nc4cc(OC)c(OC)c(OC)c4)n3)cc2)cc1 ; system used: Ret-1 (Homo sapiens)
Result: 5.30 to 6.07

Q: Write pIC50 of COc1cc(Nc2ncnc(N3CCCC4CCCCC43)n2)cc(OC)c1OC (stereo not drawn) ; system used: Ret-1 (Homo sapiens)
Result: < 4.95
